# Study system: Gal(b1-3)GlcNAc(b1-6)[Gal(b1-3)]GalNAc
# Test protocol: glycan array binding signal (z-score within array); higher = stronger binding
# Recorded conditions: glycan notation: IUPAC condensed, linker removed
About 410 targets per protein were measured; listed, in parts, are those with the strongest signals and a random draw of the rest.
Observable: glycan array binding signal (z-score)

See these solved cases before continuing.
Thrombomodulin (Mus musculus) (protein) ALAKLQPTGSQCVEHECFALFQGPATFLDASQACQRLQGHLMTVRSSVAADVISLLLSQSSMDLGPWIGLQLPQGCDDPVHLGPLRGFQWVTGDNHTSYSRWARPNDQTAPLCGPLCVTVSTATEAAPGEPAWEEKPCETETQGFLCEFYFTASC = -0.267
CLECb-Precomplexed (Mus musculus), P43025 (protein) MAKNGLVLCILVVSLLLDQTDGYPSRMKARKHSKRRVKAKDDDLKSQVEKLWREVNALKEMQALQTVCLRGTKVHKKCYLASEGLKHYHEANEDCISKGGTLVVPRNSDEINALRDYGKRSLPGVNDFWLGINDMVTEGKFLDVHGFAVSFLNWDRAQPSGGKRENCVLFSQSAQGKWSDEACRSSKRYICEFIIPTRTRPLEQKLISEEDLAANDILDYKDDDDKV = -0.462
MPA (Maclura pomifera), P18674 (protein) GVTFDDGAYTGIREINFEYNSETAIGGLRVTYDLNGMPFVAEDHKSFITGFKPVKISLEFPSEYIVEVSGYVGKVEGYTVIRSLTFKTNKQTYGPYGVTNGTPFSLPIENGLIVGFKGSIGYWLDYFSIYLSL = -0.291
NPA (Narcissus pseudonarcissus), C0HM45 (protein) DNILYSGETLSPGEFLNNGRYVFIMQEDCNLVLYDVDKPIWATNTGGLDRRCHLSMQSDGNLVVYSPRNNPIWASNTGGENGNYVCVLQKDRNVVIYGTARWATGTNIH = -0.051
NKR-PIC (Mus musculus) (protein) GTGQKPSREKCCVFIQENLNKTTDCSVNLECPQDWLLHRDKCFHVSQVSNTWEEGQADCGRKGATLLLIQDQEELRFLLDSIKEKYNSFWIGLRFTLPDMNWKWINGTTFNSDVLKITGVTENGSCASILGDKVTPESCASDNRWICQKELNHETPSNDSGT = -0.308

Now consider a different binder.
# glycan array binding signal (z-score) of OS9 (Arabidopsis thaliana) (protein) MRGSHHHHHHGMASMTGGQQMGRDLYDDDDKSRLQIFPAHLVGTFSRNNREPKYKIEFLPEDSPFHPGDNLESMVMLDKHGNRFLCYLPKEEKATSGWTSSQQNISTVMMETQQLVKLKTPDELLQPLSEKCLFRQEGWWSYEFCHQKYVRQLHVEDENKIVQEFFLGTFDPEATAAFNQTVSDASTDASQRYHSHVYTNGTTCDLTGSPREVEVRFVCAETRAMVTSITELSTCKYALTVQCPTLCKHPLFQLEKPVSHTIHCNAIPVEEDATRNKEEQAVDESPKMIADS = 0.651
